# protocol_details: chemical genetic growth profiling, strain panel (AID 1159580);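 note: tested at 20 µM; growth read once vehicle control cultures reached saturation at 30 °C; 1 = growth at the plate median or of vehicle wells; lower values mean less growth of the strain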
# condition_details: S. cerevisiae deletion strains, growth OD, locus YLR258W, strain gsy2, stronger effect = lower value
About 2,000 (36%) of roughly 5,500 compounds were called active. Inconclusive results (about 18%) are left out. The list shows a part of the results.
assay_endpoint: normalized growth
Lab note: record the figure alone, no unit after it.

molecule	normalized growth
NCC(O)CC(=O)O (stereo not drawn)	1
O=C1CC2(CCCC2)CC(=O)N1CCCCN1CCN(c2ncccn2)CC1	0.977

Switching to the query record.
What the record says about `COc1nc(NC(C)C)nc(NC(C)C)n1` : normalized growth is 1.01
